test system: Fibroblast; assay: Multiplex assay against human fibroblast; type: toxicity, cell-based; details: 12 h, 1 µM, compound concentration 1 uM, replicate 2
Rule: Population Mitochondria Different-Phenotype (%) below 9% gives 1. Equal to or above 9% gives 0.

COMPOUND: CCCCN(CC)c1nc(C)nc2c1c(C)cn2-c1c(C)cc(C)cc1C.Cl
ASSIGNED_CATEGORY: 1
//
COMPOUND: CCOc1ccn(-c2ccc(F)cc2)c(=O)c1C(=O)Nc1ccc(Oc2ccnc(N)c2Cl)c(F)c1 [BMS-777607]
ASSIGNED_CATEGORY: 0
//
COMPOUND: Cc1c(P(=S)(c2ccccc2)c2ccccc2)n2ccccc2[n+]1C/C=C/c1ccccc1.[Br-]
ASSIGNED_CATEGORY: 0
//
COMPOUND: NC(=O)c1ccc2nc(-c3ccc(C4(N)CCC4)cc3)c(-c3ccccc3)n2n1 [BAY-1125976]
ASSIGNED_CATEGORY: 0
//
COMPOUND: CC(C)c1cc(Nc2nc(N3CCC[C@H](N)C3)ncc2C(N)=O)cc(C(C)C)n1
ASSIGNED_CATEGORY: 0
//
COMPOUND: Cc1c(Nc2ccc(S(=O)(=O)N3CCN(C)CC3)cc2F)nc2ccc(-c3cnn(C4CC4)c3)cn2c1=O
ASSIGNED_CATEGORY: 1
//
COMPOUND: CC[C@H](Nc1ncnc2[nH]cnc12)c1nc2cccc(F)c2c(=O)n1-c1ccccc1 [IDELALISIB]
ASSIGNED_CATEGORY: 0

----------
tested on: Fibroblast; assay: Multiplex assay against human fibroblast; type: toxicity, cell-based; details: 12 h, 1 µM, compound concentration 1 uM, replicate 1
Rule: Population Mitochondria Different-Phenotype (%) below 6% gives 1.0. Equal to or above 6% gives 0.0.

MOLECULE: N#CCNC(=O)c1ccc(-c2ccnc(Nc3ccc(N4CCOCC4)cc3)n2)cc1
ASSIGNED_CATEGORY: 1.0
//
MOLECULE: CC(/C=C1\SC(=S)N(CCCC(=O)Nc2ccc(C(=O)O)c(O)c2)C1=O)=C\c1ccccc1
ASSIGNED_CATEGORY: 1.0
//
MOLECULE: Cc1ccc(NC(=O)Nc2cc(C(F)(F)F)ccc2F)cc1Nc1ccc2c(c1)NC(=O)/C2=C\c1ccc[nH]1
ASSIGNED_CATEGORY: 1.0
//
MOLECULE: Cl.Cn1c2c(c3ccc(Cl)c(Cl)c31)C(C#N)C1(CCNCC1)NC2=O (centres undefined)
ASSIGNED_CATEGORY: 1.0
//
MOLECULE: Oc1cccc(-c2nc(N3CCOCC3)c3oc4ncccc4c3n2)c1
ASSIGNED_CATEGORY: 1.0
//
MOLECULE: Cc1c(P(=S)(c2ccccc2)c2ccccc2)n2ccccc2[n+]1C/C=C/c1ccccc1.[Br-]
ASSIGNED_CATEGORY: 0.0

----------
Below, each entry is listed with its recorded Growth Rate.
test system: HEK-293T; experiment: Incucyte cell viability with HEK293T; type: toxicity, cell-based; conditions: human, 18 h, 10 µM, compound concentration 10 uM, replicate number 1, timepoint 18 hours; note: filed as whole numbers so only -1 and 0 and 1 occur

MOLECULE: N#Cc1cccc(C(=O)Nc2cc(-c3ccccc3)nn2-c2ccccc2)c1
TARGET_DESC: HEK-293T
Growth Rate: 0
--
MOLECULE: CN1CCN(Cc2ccc(-c3cnc4[nH]cc(-c5ccc6[nH]ccc6c5)c4c3)cc2)CC1
TARGET_DESC: HEK-293T
Growth Rate: 0
--
MOLECULE: CCOP(=O)(OCC)C(=Cc1cc(C(C)(C)C)c(O)c(C(C)(C)C)c1)P(=O)(OCC)OCC
TARGET_DESC: HEK-293T
Growth Rate: 0
--
MOLECULE: COc1cc(C)c(Sc2cnc(NC(=O)c3ccc(CNC(C)C(C)(C)C)cc3)s2)cc1C(=O)N1CCN(C(C)=O)CC1 (configuration not stated)
TARGET_DESC: HEK-293T
Growth Rate: 0
--
MOLECULE: Cc1cc2c(cc1-c1cc(/C=C/C(=O)O)ccc1O)C(C)(C)CCC2(C)C
TARGET_DESC: HEK-293T
Growth Rate: 1
--
MOLECULE: CC1=C2C[C@H]3[C@@H](CC=C4C[C@@H](O)CC[C@@]43C)[C@@H]2CC[C@]12O[C@@H]1C[C@H](C)CN[C@H]1[C@H]2C
TARGET_DESC: HEK-293T
Growth Rate: 0
--
MOLECULE: Cc1ccc2[nH]c(CNCCCc3ccncc3)cc(=O)c2c1 [UCSF924NC]
TARGET_DESC: HEK-293T
Growth Rate: 0
--
MOLECULE: COc1ncc(F)cc1CNc1ccc(Cc2c[nH]c3ncc(C)cc23)c(F)n1
TARGET_DESC: HEK-293T
Growth Rate: 1
--
MOLECULE: Cc1c(F)cccc1NC(=O)Nc1ccc(Cl)c(S(=O)(=O)[C@H]2CCCNC2)c1O
TARGET_DESC: HEK-293T
Growth Rate: 0
--
MOLECULE: CC(C)(O)c1cncc(-c2nc3ccc(F)cc3n2C2CC2)c1
TARGET_DESC: HEK-293T
Growth Rate: 0
--
MOLECULE: CN(C)CCCN1c2ccccc2CCc2ccccc21.Cl [IMIPRAMINE HYDROCHLORIDE]
TARGET_DESC: HEK-293T
Growth Rate: 0
--
MOLECULE: C[C@@H](Oc1cc(-n2cnc3ccc(CN4CCN(C)CC4)cc32)sc1C(N)=O)c1ccccc1C(F)(F)F
TARGET_DESC: HEK-293T
Growth Rate: 0
--
MOLECULE: c1ccc(-c2oc3ncnc(NC[C@@H]4CCCO4)c3c2-c2ccccc2)cc1
TARGET_DESC: HEK-293T
Growth Rate: 0
--
MOLECULE: CCOC(=O)c1ncn2c1CN(C)C(=O)c1cc(F)ccc1-2
TARGET_DESC: HEK-293T
Growth Rate: 1
--
MOLECULE: CC(C)(N)C(=O)N[C@H](COCc1ccccc1)C(=O)N1CCC2(CC1)CN(S(C)(=O)=O)c1ccccc12.CS(=O)(=O)O [IBUTAMOREN MESYLATE]
TARGET_DESC: HEK-293T
Growth Rate: 0
--
MOLECULE: COc1cc(N2CCC(O)CC2)ccc1Nc1cc(Nc2ccccc2S(=O)(=O)C(C)C)c2cc[nH]c2n1
TARGET_DESC: HEK-293T
Growth Rate: 0
--
MOLECULE: CCCCC#Cc1nc(NC)c2ncn([C@@H]3O[C@H](CO)[C@@H](O)[C@H]3O)c2n1
TARGET_DESC: HEK-293T
Growth Rate: 0

----------
tested on: HEK-293T; test: Incucyte cell viability with HEK293T; assay type: toxicity, cell-based; details: human, 24 h, 10 µM, compound concentration 10 uM, replicate number 1, timepoint 24 hours; note: filed as whole numbers so only -1 and 0 and 1 occur
Below, each entry is listed with its recorded Growth Rate.
METRIC_NAME: Growth Rate

COMPOUND: CN(CCOc1ccc(CC2SC(=O)NC2=O)cc1)c1ccccn1 (configuration not stated)
ASSAY_VALUE: 1
--
COMPOUND: Cc1ccc(NC(=O)Nc2cc(C(F)(F)F)ccc2F)cc1Nc1ccc2c(c1)NC(=O)/C2=C\c1ccc[nH]1
ASSAY_VALUE: 0
--
COMPOUND: OCCn1cc(-c2ccc3c(c2)CCC3=NO)c(-c2ccncc2)n1
ASSAY_VALUE: 0
--
COMPOUND: N#CCNC(=O)c1ccc(-c2ccnc(Nc3ccc(N4CCOCC4)cc3)n2)cc1
ASSAY_VALUE: 0
--
COMPOUND: COc1cc(Nc2ccnc3ccc(Br)cc23)cc(OC)c1OC
ASSAY_VALUE: 0
--
COMPOUND: CC(C)(Cc1ccccc1)NCC(O)c1ccc(O)c(NS(C)(=O)=O)c1.Cl (configuration not stated) [ZINTEROL HYDROCHLORIDE]
ASSAY_VALUE: 1
--
COMPOUND: N#CC1(c2ccccn2)CCN(Cc2cc(C(=O)O)c(=O)n3ccccc23)CC1
ASSAY_VALUE: 1
--
COMPOUND: NS(=O)(=O)c1cc(NC(=O)Cc2ccccc2)ccc1Oc1cccc(Cl)c1
ASSAY_VALUE: 0
--
COMPOUND: N#Cc1cccc(C(=O)Nc2cc(-c3ccccc3)nn2-c2ccccc2)c1
ASSAY_VALUE: 0
--
COMPOUND: C/C(=N\NC(=O)[C@@H]1C(=O)NC[C@H]1c1ccccc1)c1cccc(Br)c1
ASSAY_VALUE: 0
--
COMPOUND: COc1cc(C#N)ccc1S(=O)(=O)Nc1ccc2c(c1)cc(C)c(=O)n2C
ASSAY_VALUE: 0
--
COMPOUND: c1ccc(-c2oc3ncnc(NC[C@@H]4CCCO4)c3c2-c2ccccc2)cc1
ASSAY_VALUE: 0
--
COMPOUND: C[C@H]1C[C@H]2[C@@H]3CCC4=CC(=O)C=C[C@]4(C)[C@@]3(Cl)[C@@H](O)C[C@]2(C)[C@@]1(O)C(=O)CO
ASSAY_VALUE: 1
--
COMPOUND: CNC(=O)Nc1ccc2c(c1)CC[C@@]21OC(=O)N(CC(=O)N(Cc2ccc(F)cc2)[C@@H](C)C(F)(F)F)C1=O
ASSAY_VALUE: 0
--
COMPOUND: CC[C@H](Nc1ncnc2[nH]cnc12)c1nc2cccc(F)c2c(=O)n1-c1ccccc1
ASSAY_VALUE: 0
--
COMPOUND: CC(C)(N)C(=O)N[C@H](COCc1ccccc1)C(=O)N1CCC2(CC1)CN(S(C)(=O)=O)c1ccccc12.CS(=O)(=O)O [IBUTAMOREN MESYLATE]
ASSAY_VALUE: 0
--
COMPOUND: NC(=O)[C@@H]1CCCN1C(=O)[C@H](Cc1cnc[nH]1)NC(=O)[C@@H]1CCC(=O)N1
ASSAY_VALUE: 1
